experiment.notes: xn = mol fraction of the nth substance listed, in the solute-free solvent
condition: 298.15 K; x2 = 0.1666
measured.parameter: solubility (g/100 g solution)
Just the number, please.

Some solved cases for reference:
For reference, reported solubility (g/100 g solution) for Nc1cccc2ccncc12 + CCCO + O stands at 0.739

// Nc1cccc2ccncc12 + CC(C)O + O : solubility (g/100 g solution) value = 0.59

Measured solubility (g/100 g solution), Cc1ccc2cc(Br)ccc2n1 + CC(C)O + O : 0.637

Further cases:
Quick note, solubility (g/100 g solution) for CN1CCC(N(Cc2cccs2)c2ccccc2)CC1 + CCCO + O landed at 1.36

The reported value for CN1CCC(N(Cc2cccs2)c2ccccc2)CC1 + CC(C)O + O in terms of solubility (g/100 g solution) is 1.09

###

Here the recorded solubility (g/100 g solution) is given for each entry.
experiment.notes: xn = mol fraction of the nth substance listed, in the solute-free solvent
condition: 288.15 K; x2 = 0.06974
Give the figure only, with no unit attached.

Study these solved cases before continuing.
Short answer for Nc1cccc2ccncc12 + CCCO + O : solubility (g/100 g solution) was 0.226

In plain terms, Nc1cccc2ccncc12 + CC(C)O + O has a documented solubility (g/100 g solution) of 0.184

The value of solubility (g/100 g solution) measured for the molecule CN1CCC(N(Cc2cccs2)c2ccccc2)CC1 + CC(C)O + O turned out to be 0.365

GET /value?item= Cc1ccc2cc(Br)ccc2n1 + CC(C)O + O &field=solubility (g/100 g solution) returns 0.185

Further cases:
solubility (g/100 g solution) in this record for CN1CCC(N(Cc2cccs2)c2ccccc2)CC1 + CCCO + O : 0.458

###

experiment.notes: xn = mol fraction of the nth substance listed, in the solute-free solvent
condition: 308.15 K; x2 = 0.5454
Assign class by solubility (g/100 g solution): not lower than 2 means t; lower than 2 means f.

Answered examples (4):
Lookup: hey, is solubility (g/100 g solution) for this one >= 2? Cc1ccc2cc(Br)ccc2n1 + CC(C)O + O
Found: f

Lookup: Check the entry CN1CCC(N(Cc2cccs2)c2ccccc2)CC1 + CC(C)O + O : does solubility (g/100 g solution) equal or exceed 2?
Found: t

Lookup: Could you verify whether the entry CN1CCC(N(Cc2cccs2)c2ccccc2)CC1 + CCCO + O shows solubility (g/100 g solution) of no less than 2?
Found: t

Lookup: // inclusive: solubility (g/100 g solution) at least 2? input: Nc1cccc2ccncc12 + CC(C)O + O
Found: f

As a next step, examine the compound that follows.
Lookup: Textbook exercise: given the entry Nc1cccc2ccncc12 + CCCO + O , state whether its solubility (g/100 g solution) is greater than or equal to 2.
Found: t

###

experiment.notes: xn = mol fraction of the nth substance listed, in the solute-free solvent
condition: 313.15 K; x2 = 0.4117
Decision: solubility (g/100 g solution) >= 2 yields true (1), all other cases yield false (0).

Solved entries (count: 4):
Lookup: Item CN1CCC(N(Cc2cccs2)c2ccccc2)CC1 + CCCO + O with solubility (g/100 g solution) of 2 or above?
Found: true (1)

Lookup: Hello, I need to know if Cc1ccc2cc(Br)ccc2n1 + CC(C)O + O has measured solubility (g/100 g solution) not below 2. Thanks!
Found: false (0)

Lookup: Decide: is the reported value of solubility (g/100 g solution) for Nc1cccc2ccncc12 + CCCO + O equal to or greater than 2?
Found: true (1)

Lookup: Entry Nc1cccc2ccncc12 + CC(C)O + O : is its solubility (g/100 g solution) no less than 2?
Found: false (0)

Others:
Lookup: Item CN1CCC(N(Cc2cccs2)c2ccccc2)CC1 + CC(C)O + O with solubility (g/100 g solution) of 2 or above?
Found: true (1)
